Assay: Mutagenicity in Salmonella typhimurium TA1535 in absence of rat liver S9 fraction by AMES test
Format: toxicity
Conditions: salmonella enterica subsp. enterica serovar typhimurium
result-type: Activity

{"columns": ["mol", "result-type", "result"],
 "data": [
  ["Cc1ccc(CN2CCN(C(=O)C(=O)Nc3ccc4c(c3)c(C)cn4C)CC2)cc1", "Activity", "Toxic"],
  ["Cc1ccc(CN2CCN(C(=O)C(=O)Nc3cc4ccn(C)c4cc3F)CC2)cc1", "Activity", "Toxic"],
  ["Cc1ccc(CN2CCN(C(=O)C(=O)Nc3ccc4c(c3)c(F)cn4C)CC2)cc1", "Activity", "Toxic"],
  ["Cc1ccc(CN2CCN(C(=O)C(=O)Nc3cc(F)c4[nH]ccc4c3)CC2)cc1", "Activity", "Toxic"],
  ["O=C(NCc1ccc2[nH]ccc2c1)N1CC(COc2ccc(C(F)(F)F)cc2)C1", "Activity", "Non-Toxic"],
  ["Cc1ccc(CN2CCN(C(=O)C(=O)Nc3ccc4c(ccn4C)c3)CC2)cc1", "Activity", "Non-Toxic"],
  ["Cc1ccc(CN2CCN(C(=O)C(=O)Nc3ccc4c(c3)c(Cl)cn4C)CC2)cc1", "Activity", "Toxic"],
  ["Cc1ccc(CN2CCN(C(=O)C(=O)Nc3ccc4c(F)cn(C)c4c3)CC2)cc1", "Activity", "Toxic"],
  ["Cc1ccc(CN2CCN(C(=O)C(=O)Nc3ccc4[nH]c(C)c(C)c4c3)CC2)cc1", "Activity", "Toxic"]
]}
